- target-or-system: CHK2 (Homo sapiens, UniProt O96017)
- Construct: CEREP, France (ran the assays)
- Sequence (O96017 whole entry): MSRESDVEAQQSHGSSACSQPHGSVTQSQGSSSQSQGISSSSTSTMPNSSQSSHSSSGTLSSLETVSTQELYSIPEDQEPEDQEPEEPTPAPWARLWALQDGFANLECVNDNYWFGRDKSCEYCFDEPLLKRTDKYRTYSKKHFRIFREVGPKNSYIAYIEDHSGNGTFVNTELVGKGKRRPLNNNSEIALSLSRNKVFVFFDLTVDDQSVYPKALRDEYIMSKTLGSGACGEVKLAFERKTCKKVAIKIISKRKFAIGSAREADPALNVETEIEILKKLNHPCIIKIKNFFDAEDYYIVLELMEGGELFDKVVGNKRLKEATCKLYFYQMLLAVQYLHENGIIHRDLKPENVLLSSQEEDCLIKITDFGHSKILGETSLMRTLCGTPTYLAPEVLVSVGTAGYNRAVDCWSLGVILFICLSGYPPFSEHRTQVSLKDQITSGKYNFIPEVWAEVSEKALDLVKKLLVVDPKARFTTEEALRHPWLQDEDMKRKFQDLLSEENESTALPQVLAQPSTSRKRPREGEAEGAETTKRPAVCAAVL
- experiment-notes: Kinase Selectivity Assay (CEREP, HTRF)
- Format: biochemical
- details: read-out: % Inhibition at 10 μM Concentration, CHK2
inhibition at 10 µM reference
All answers are understood in %, so give the number only.

compound="COc1ccc2c(c1)C(=Cc1ccc3c(-c4ccc(N5CCN(C)CC5)nc4)n[nH]c3c1)C(=O)N2 (mixture of isomers)" property_label="inhibition at 10 µM" recorded_result=4
compound="O=C1Nc2ccccc2C1=Cc1ccc2c(/C=C/c3ccccn3)n[nH]c2c1 (mixture of isomers)" property_label="inhibition at 10 µM" recorded_result=22
compound=O=C1Nc2ccccc2/C1=C\c1ccc2[nH]nnc2c1 property_label="inhibition at 10 µM" recorded_result=14

// sample `O=C1Nc2ccccc2/C1=C\c1ccc2c(/C=C/c3ccccc3Cl)n[nH]c2c1` , its inhibition at 10 µM was 6

// sample `O=C1Nc2ccccc2/C1=C\c1ccc2cn[nH]c2c1` , its inhibition at 10 µM was 2
